Test system: Avena fatua (AVEFA)
protocol summary: Pre-emergence herbicidal activity, glasshouse pot test
Type: in vivo
experimental context: 312 h, rate 250 g/ha, evaluated after 13 days, 100=total damage to plant, 0=no damage to plant
Outcome: True for pest or weed control at 250 g/ha of at least 30%; False for anything lower.

Answered examples (8):
query: Is pest or weed control at 250 g/ha at least 30%? Consider `CCc1ccc(Oc2ccccc2Cl)cc1C1=C(O)[C@H]2[C@@H](C1=O)[C@@H]1CC[C@H]2O1`
result: False

query: Has `CCc1ccc(Oc2ccc(OC(F)(F)F)cc2)cc1C1=C(O)[C@H]2[C@@H](C1=O)[C@@H]1CC[C@H]2O1` a recorded pest or weed control at 250 g/ha greater than or equal to 30%?
result: True

query: Item `CCc1ccc(Oc2ncc(Cl)cc2F)cc1C1=C(O)[C@H]2[C@H]3CC[C@H](C3)[C@H]2C1=O` with pest or weed control at 250 g/ha of 30% or above?
result: True

query: Test whether the compound `CCc1ccc(Oc2ncc(Cl)cc2F)cc1C1=C(O)CCC1=O` records pest or weed control at 250 g/ha of 30% or higher.
result: True

query: Given the entry `CCc1ccc(Oc2ccc(C(F)(F)F)cc2Br)cc1C1=C(O)CCC1=O` , answer whether its pest or weed control at 250 g/ha meets or surpasses 30%.
result: False

query: Would you say CCc1ccc(Oc2ccc(Cl)c(F)c2)cc1C1=C(O)C2C(C1=O)[C@H]1CC[C@@H]2CC1 (stereo partly drawn) shows pest or weed control at 250 g/ha at minimum 30%?
result: False

query: Say whether `CCc1ccc(Oc2ccc(Br)cc2Cl)cc1C1=C(O)CCC1=O` shows pest or weed control at 250 g/ha of 30% or more.
result: False

query: Threshold query (pest or weed control at 250 g/ha >= 30%) on `CCc1ccc(Oc2ccc(Cl)cc2F)cc1C1=C(O)[C@H]2[C@@H](C1=O)[C@@H]1CC[C@H]2O1`
result: True

Others:
query: Entry `O=C1CCC(O)=C1c1cc(Oc2ccc(Cl)cc2)ccc1C1CC1` : is its pest or weed control at 250 g/ha no less than 30%?
result: False

query: # bool: pest or weed control at 250 g/ha of `CCc1ccc(Oc2ccc(Br)c(Cl)c2)cc1C1=C(O)[C@H]2[C@@H](C1=O)[C@@H]1CC[C@H]2O1` >= 30%
result: True

query: Hi team, for `CCc1ccc(Oc2cccc(Cl)c2)cc1C1=C(O)[C@H]2[C@@H](C1=O)[C@@H]1CC[C@H]2O1` , is the recorded pest or weed control at 250 g/ha at or above 30%?
result: True

query: API: above_or_equal(metric=pest or weed control at 250 g/ha, cutoff=30%) for item `CCc1ccc(Oc2ccc(Br)cc2)cc1C1=C(O)CCC1=O`
result: False

query: Given CCc1ccc(Oc2nc3ccc(C(F)(F)F)cc3s2)cc1C1=C(O)C2C(C1=O)[C@H]1CC[C@@H]2CC1 (stereo partly drawn) , state whether its pest or weed control at 250 g/ha is at least 30%.
result: False

* * *

Test system: Alopecurus myosuroides (ALOMY)
protocol summary: Post-emergence herbicidal activity, glasshouse pot test
Assay type: in vivo
experimental context: 312 h, rate 250 g/ha, evaluated after 13 days, 100=total damage to plant, 0=no damage to plant
measured attribute: pest or weed control at 250 g/ha (%)
Give bare numbers, in %.

query: Provide the documented pest or weed control at 250 g/ha with Alopecurus myosuroides (ALOMY) as the system for CCc1ccc(Oc2ccc(Cl)cc2F)cc1C1=C(O)[C@H]2[C@H]3CC[C@H](C3)[C@H]2C1=O [Compound A-25]
result: 50

query: Record lookup: for Alopecurus myosuroides (ALOMY), what pest or weed control at 250 g/ha belongs to CCc1ccc(Oc2cnc3cc(Cl)ccc3n2)cc1C1=C(O)[C@H]2[C@@H](C1=O)[C@@H]1CC[C@H]2O1 [Compound A-51] ?
result: 100

For every item below, please supply its pest or weed control at 250 g/ha.
1. CCc1ccc(Oc2ncc(Cl)cc2F)cc1C1=C(O)CCC1=O [Compound A-19]
2. CCc1ccc(Oc2ccc(Br)cc2F)cc1C1=C(O)[C@H]2[C@@H](C1=O)[C@@H]1CC[C@H]2O1 [Compound A-2]
3. CCc1ccc(Oc2nc3ccccc3s2)cc1C1=C(O)[C@H]2[C@H]3CC[C@H](C3)[C@H]2C1=O [Compound A-12]
4. CCc1ccc(Oc2cccc(Br)c2)cc1C1=C(O)[C@H]2[C@@H](C1=O)[C@@H]1CC[C@H]2O1 [Compound A-47]

result:
[80, 100, 100, 60]

query: API: value(readout=pest or weed control at 250 g/ha, system=Alopecurus myosuroides (ALOMY)) for record CCc1ccc(Oc2ccc(Cl)c(Cl)c2)cc1C1=C(O)CCC1=O [Compound A-17]
result: 10

* * *

Consider the following compounds; for each one, report its pest or weed control at 250 g/ha.
System: Avena fatua (AVEFA)
protocol summary: Post-emergence herbicidal activity, glasshouse pot test
Format: in vivo
experimental context: 312 h, rate 250 g/ha, evaluated after 13 days, 100=total damage to plant, 0=no damage to plant
Answers are plain numbers, in %.

query: Would you mind telling me what pest or weed control at 250 g/ha value was observed for `CCc1ccc(Oc2ccc(Br)cc2C)cc1C1=C(O)[C@H]2[C@@H](C1=O)[C@@H]1CC[C@H]2O1` ?
result: 90

query: Form field: reported pest or weed control at 250 g/ha of `CCc1ccc(Oc2nc3ccc(OC)cc3s2)cc1C1=C(O)CCC1=O`
result: 0

query: Which pest or weed control at 250 g/ha reading was recorded for the compound CCc1ccc(Oc2ccc(Br)cc2F)cc1C1=C(O)C2C(C1=O)[C@H]1CC[C@@H]2CC1 (stereo partly shown) ?
result: 90

query: Data request, read-out pest or weed control at 250 g/ha, for CCc1ccc(Oc2cnc3ccc(Br)cc3n2)cc1C1=C(O)C2C(C1=O)[C@H]1CC[C@@H]2CC1 (stereo partly shown)
result: 60

query: Can you look up the measured pest or weed control at 250 g/ha of CCc1ccc(Oc2cnc3cc(Cl)ccc3n2)cc1C1=C(O)C2C(C1=O)[C@H]1CC[C@@H]2CC1 (stereo partly shown) for me?
result: 100

query: Look up pest or weed control at 250 g/ha for this compound: `CCc1ccc(Oc2ccc(Cl)cc2)cc1C1=C(O)[C@H]2[C@@H](C1=O)[C@@H]1CC[C@H]2O1`
result: 80

Please examine the following record next.
query: Suppose we examine the compound CCc1ccc(Oc2ccc(Br)cc2Cl)cc1C1=C(O)C2C(C1=O)[C@H]1CC[C@@H]2CC1 (stereo partly shown) ; what pest or weed control at 250 g/ha value has been reported?
result: 0

* * *

Tested on: Avena fatua (AVEFA)
protocol summary: Post-emergence herbicidal activity, glasshouse pot test
Assay type: in vivo
experimental context: 312 h, rate 250 g/ha, evaluated after 13 days, 100=total damage to plant, 0=no damage to plant
measured attribute: pest or weed control at 250 g/ha (%)
Answers are plain numbers, in %.

query: What value of pest or weed control at 250 g/ha has been reported for the following compound? `CCc1ccc(Oc2ccccc2F)cc1C1=C(O)[C@H]2[C@@H](C1=O)[C@@H]1CC[C@H]2O1`
result: 10

query: Which pest or weed control at 250 g/ha is listed for CCc1ccc(Oc2ccc(C#N)cc2)cc1C1=C(O)C2C(C1=O)[C@H]1CC[C@@H]2CC1 (stereo partly shown) ?
result: 30

query: Item `CCc1ccc(Oc2cccc(Br)c2)cc1C1=C(O)[C@H]2[C@@H](C1=O)[C@@H]1CC[C@H]2O1` has what recorded pest or weed control at 250 g/ha?
result: 30

// next item, pest or weed control at 250 g/ha requested
query: // returns reported pest or weed control at 250 g/ha for input `CCc1ccc(Oc2ccc(Cl)c(F)c2)cc1C1=C(O)[C@H]2[C@@H](C1=O)[C@@H]1CC[C@H]2O1`
result: 90

* * *

Test system: Alopecurus myosuroides (ALOMY)
protocol summary: Post-emergence herbicidal activity, glasshouse pot test
Type: in vivo
experimental context: 312 h, rate 250 g/ha, evaluated after 13 days, 100=total damage to plant, 0=no damage to plant
Exercise: state measured pest or weed control at 250 g/ha for each of the compounds provided.
Numbers only, in %.

Examples with their reported pest or weed control at 250 g/ha follow.
query: Could you share which pest or weed control at 250 g/ha value was measured for `CCc1ccc(Oc2ccc(Br)cc2)cc1C1=C(O)CCC1=O` ?
result: 20

query: Would you mind telling me what pest or weed control at 250 g/ha value was observed for CCc1ccc(Oc2ncc(C(F)(F)F)cc2Cl)cc1C1=C(O)C2C(C1=O)[C@H]1CC[C@@H]2CC1 (stereo partly shown) ?
result: 90

query: If you can, please state the reported pest or weed control at 250 g/ha value of CCc1ccc(Oc2cnc3cc(Cl)ccc3n2)cc1C1=C(O)C2C(C1=O)[C@H]1CC[C@@H]2CC1 (stereo partly shown) .
result: 90

query: # pest or weed control at 250 g/ha lookup, item `CCc1ccc(Oc2nc3c(Cl)cc(Cl)cc3s2)cc1C1=C(O)CCC1=O`
result: 20

query: # lookup: pest or weed control at 250 g/ha of `CCc1ccc(Oc2cnc3ccc(Br)cc3n2)cc1C1=C(O)CCC1=O`
result: 0

Here are 5 compounds. What values of pest or weed control at 250 g/ha were reported for them?
1. CCc1ccc(Oc2ccc3cc(Cl)ccc3n2)cc1C1=C(O)C2C3CCC(CC3)C2C1=O (stereo not shown)
2. CCc1ccc(Oc2ccc(Cl)c(F)c2)cc1C1=C(O)[C@H]2[C@@H](C1=O)[C@@H]1CC[C@H]2O1
3. CCc1ccc(Oc2ncc(Cl)cc2F)cc1C1=C(O)C2C(C1=O)[C@H]1CC[C@@H]2CC1 (stereo partly shown)
4. CCc1ccc(Oc2cnc3ccc(Br)cc3n2)cc1C1=C(O)C2C(C1=O)[C@H]1CC[C@@H]2CC1 (stereo partly shown)
5. CCc1ccc(Oc2ccc(Cl)cc2Cl)cc1C1=C(O)[C@H]2[C@H]3CC[C@H](C3)[C@H]2C1=O

result:
1: 80; 2: 90; 3: 100; 4: 60; 5: 40

Below are some compounds; for each one, tell me its pest or weed control at 250 g/ha.
1. CCc1ccc(Oc2ccccc2F)cc1C1=C(O)[C@H]2[C@@H](C1=O)[C@@H]1CC[C@H]2O1
2. CCc1ccc(Oc2ccc(Cl)cc2)cc1C1=C(O)CCC1=O

result:
[30, 10]

Please give pest or weed control at 250 g/ha for each item listed below.
1. O=C1CCC(O)=C1c1cc(Oc2ccc(Cl)cc2)ccc1C1CC1
2. CCc1ccc(Oc2ccc(F)c(Cl)c2)cc1C1=C(O)[C@H]2[C@@H](C1=O)[C@@H]1CC[C@H]2O1
3. CCc1ccc(Oc2nc3ccc(OC)cc3s2)cc1C1=C(O)CCC1=O
4. CCc1ccc(Oc2ncc(Cl)cc2Cl)cc1C1=C(O)C2C(C1=O)[C@H]1CC[C@@H]2CC1 (stereo partly shown)

result:
1. 0
2. 90
3. 10
4. 90

Batch request: pest or weed control at 250 g/ha per item, same order as input.
1. CCc1ccc(Oc2ccc(Br)c(Cl)c2)cc1C1=C(O)[C@H]2[C@@H](C1=O)[C@@H]1CC[C@H]2O1
2. CCc1ccc(Oc2cnc3cc(Cl)ccc3n2)cc1C1=C(O)[C@H]2[C@H]3CC[C@H](C3)[C@H]2C1=O
3. CCc1ccc(Oc2ccc(Br)cc2Cl)cc1C1=C(O)CCC1=O
4. CCc1ccc(Oc2ccc(C(F)(F)F)c(C#N)c2)cc1C1=C(O)CCC1=O
5. CCc1ccc(Oc2ccc(F)cc2)cc1C1=C(O)[C@H]2[C@H]3CC[C@H](C3)[C@H]2C1=O
6. O=C1CCC(O)=C1c1cc(Oc2ccc(Cl)cc2)ccc1OC(F)(F)F
7. CCc1ccc(Oc2ccc(Cl)cc2Cl)cc1C1=C(O)[C@H]2[C@@H](C1=O)[C@@H]1CC[C@H]2O1

result:
[80, 90, 10, 0, 50, 0, 80]

// for each compound in input: emit pest or weed control at 250 g/ha
1. CCc1ccc(Oc2ccc(Cl)cc2F)cc1C1=C(O)CCC1=O
2. CCc1ccc(Oc2ccc(Cl)cc2F)cc1C1=C(O)[C@H]2[C@@H](C1=O)[C@@H]1CC[C@H]2O1
3. CCc1ccc(Oc2ccc3cc(Cl)ccc3n2)cc1C1=C(O)CCC1=O
4. CCc1ccc(Oc2ccc([N+](=O)[O-])c(Cl)c2)cc1C1=C(O)C2C(C1=O)[C@H]1CC[C@@H]2CC1 (stereo partly shown)
5. CCc1ccc(Oc2ccc(Cl)c(F)c2)cc1C1=C(O)CCC1=O

result:
[10, 80, 60, 10, 0]

Look up pest or weed control at 250 g/ha for the entries below, preserving their order.
1. CCc1ccc(Oc2ccc(C(F)(F)F)cc2Br)cc1C1=C(O)CCC1=O
2. CCc1ccc(Oc2ccc(F)cc2)cc1C1=C(O)[C@H]2[C@@H](C1=O)[C@@H]1CC[C@H]2O1
3. CCc1ccc(Oc2ccc(C(F)(F)F)cn2)cc1C1=C(O)CCC1=O

result:
1: 40; 2: 80; 3: 90
